Test: chemical genetic growth profiling, strain panel (AID 1159580);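 further: tested at 20 µM; growth read once vehicle control cultures reached saturation at 30 °C; 1 = growth at the plate median or of vehicle wells; lower values mean less growth of the strain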
Conditions: S. cerevisiae deletion strains, growth OD, locus YEL061C, strain CIN8 (second series), stronger effect = lower value
About 2,000 (36%) of roughly 5,500 compounds were called active. Inconclusive results (about 18%) are left out. The list shows a part of the results.
property-label: normalized growth
Reply: number alone, nothing else.

Known results for molecules:
CC(C)[C@H](N)C(=O)OCCOCn1cnc2c(=O)[nH]c(N)nc21 :: 1
OC(CCN1CCCCC1)(c1ccccc1)c1ccccc1 :: 0.977
COC1C(O)C(O)C(O)[C@@H](O)C1O (some centres not stated) :: 0.971
O=c1ccc2cc(O)c(O)cc2o1 :: 0.997

Request the reported normalized growth associated with COc1cc(O)c2c(=O)cc(C)oc2c1CC=C(C)C
0.993

Next entry: CCCCOc1ccc(C(=O)CCN2CCCCC2)cc1
0.446

One more molecule: OCC(O)Cc1ccc2c(c1)OCO2 (configuration not stated)
1

What would you report for COc1ccc(-c2coc3c(O)c(OC)ccc3c2=O)cc1 ?
0.963

Same thing, different molecule: Cc1cc(C(C)(C)CC(C)(C)C)ccc1OCCOCC[N+](C)(C)Cc1ccccc1
0.0588
